System Under Test: Bcl6 (Homo sapiens (Human))
Protocol Description: Bcl-6 protein degradation experiment in Farage cells
Assay type: cell-based
Conditions: 24 hours
Quick reference for DC50 among some molecules

Molecule	DC50
CCn1c(=O)c(OCC(=O)NC)cc2cc(Nc3nc(N4CCC(O[C@H]5C[C@H](N6CCN7c8cc(F)c(C9CCC(=O)NC9=O)cc8CC[C@@H]7C6)C5)CC4)ncc3Cl)ccc21 (stereo partly drawn) [Trifluoroacetate of compound 74]	< 10 nM

Prompt: Endpoint output: DC50 of CCn1c(=O)c(OCC(=O)NC)cc2cc(Nc3nc(N4CCC(O[C@H]5C[C@H](N6CCN7c8cc(F)c(C9CCC(=O)NC9=O)cc8CC[C@H]7C6)C5)CC4)ncc3Cl)ccc21 (stereo partly drawn) [Trifluoroacetate of compound 61] . Value?
Response: < 10 nM

Prompt: Endpoint output: DC50 of CNC(=O)COc1cc2cc(Nc3nc(N4CCC(N(C)C5CCN(c6cccc7c6n(C)c(=O)n7C6CCC(=O)NC6=O)CC5)CC4)ncc3Cl)ccc2n(C)c1=O (stereo not drawn) [Trifluoroacetate of compound 11] . Value?
Response: < 10 nM

---

System Under Test: Bcl6 (Homo sapiens (Human), UniProt P41182)
Protocol Description: Bcl-6 protein degradation experiment in Farage cells
Format: cell-based
Conditions: 24 hours
Quick reference for DC50 among some compounds

Compound	Property	Readout Value
[2H]C([2H])([2H])NC(=O)COc1cc2cc(Nc3nc(N4CCC(O[C@H]5C[C@H](N6CCN7c8cc(F)c(C9CCC(=O)NC9=O)cc8CC[C@@H]7C6)C5)CC4)ncc3Cl)ccc2n(C)c1=O (some centres unmarked) [Trifluoroacetate of compound 92]	DC50	< 10 nM
[2H]C([2H])([2H])n1c(=O)c(OCC(=O)NC)cc2cc(Nc3nc(N4CCC(O[C@H]5C[C@H](N6CCN7c8cc(F)c(C9CCC(=O)NC9=O)cc8CC[C@H]7C6)C5)CC4)ncc3Cl)ccc21 (some centres unmarked) [Trifluoroacetate of compound 73]	DC50	< 10 nM
CC(=O)COc1cc2cc(Nc3nc(N4CCN(c5ccc(C6CCC(=O)NC6=O)cc5)CC4)ncc3Cl)ccc2n(C)c1=O (centres unmarked) [Trifluoroacetate of compound 17]	DC50	< 10 nM

Prompt: Endpoint output: DC50 of CNC(=O)COc1cc2cc(Nc3nc(N4CCC(CN5CCN6c7cc(F)c(C8CCC(=O)NC8=O)cc7CC[C@H]6C5)CC4)ncc3Cl)ccc2n(C(C)C)c1=O (some centres unmarked) [Trifluoroacetate of compound 57] . Value?
Response: < 10 nM

Prompt: Endpoint output: DC50 of CNC(=O)COc1cc2cc(Nc3nc(N4CCC(CN5CCN(c6cccc7c6n(C)c(=O)n7C6CCC(=O)NC6=O)CC5)CC4)ncc3Cl)ccc2n(C)c1=O (centres unmarked) . Value?
Response: < 10 nM

---

Quick reference for DC50 among some compounds
System Under Test: Bcl6 (Homo sapiens (Human), UniProt P41182)
Protocol Description: Bcl-6 protein degradation experiment in Farage cells
Format: cell-based
Conditions: 24 hours

Compound	DC50
CNC(=O)COc1cc2cc(Nc3nc(N4CCC(F)(CN5CCN6c7cc(F)c(C8CCC(=O)NC8=O)cc7CC[C@@H]6C5)CC4)ncc3Cl)ccc2n(C(C)C)c1=O (some centres unmarked) [Trifluoroacetate of compound 98]	< 10 nM
CC(=O)COc1cc2cc(Nc3nc(N4CCC(CN5CCN(c6ccc(C7CCC(=O)NC7=O)cc6)CC5)CC4)ncc3Cl)ccc2n(C)c1=O (centres unmarked) [Trifluoroacetate of compound 13]	< 10 nM
CNC(=O)COc1cc2cc(Nc3nc(N4CCC(O[C@H]5C[C@H](N6CCN7c8cc(F)c(C9CCC(=O)NC9=O)cc8CC[C@H]7C6)C5)CC4)ncc3Cl)ccc2n(C(C)C)c1=O (some centres unmarked) [Trifluoroacetate of compound 58]	< 10 nM
[2H]C([2H])([2H])NC(=O)COc1cc2cc(Nc3nc(N4CCC(CN5CCN6c7cc(F)c(C8CCC(=O)NC8=O)cc7CC[C@H]6C5)CC4)ncc3Cl)ccc2n(C(C)C)c1=O (some centres unmarked) [Trifluoroacetate of compound 85]	< 10 nM

Prompt: Endpoint output: DC50 of CC(=O)COc1cc2cc(Nc3nc(N4CCC(N5CCN(c6ccc(NC7CCC(=O)NC7=O)cc6F)CC5)C(F)(F)C4)ncc3Cl)ccc2n(C)c1=O (centres unmarked) [Trifluoroacetate of compound 5] . Value?
Response: < 10 nM
